Biological target: T1, human ANGPTL8 (human, UniProt Q6UXH0 22-198)
T1 construct: Biotinylated in the ELISA assays; also called hANGPTL8; free ANGPTL8
T1 sequence: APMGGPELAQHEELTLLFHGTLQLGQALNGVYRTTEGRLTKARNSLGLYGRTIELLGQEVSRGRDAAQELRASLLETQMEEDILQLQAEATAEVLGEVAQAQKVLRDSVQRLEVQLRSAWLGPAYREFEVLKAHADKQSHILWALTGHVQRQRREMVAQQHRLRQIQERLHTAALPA
Experiment: ELISA; Ab captured by anti-human Fc; biotinylated antigen at 11.1 nM
measured property: OD at 560 nm (OD 560 nm)
Give bare numbers, in OD 560 nm.

INSERT INTO results (binder, measured_result) VALUES
  ('anti-ANGPTL3/8 complex Ab having a LC of SEQ ID NO:5 and a HC of SEQ ID NO:6 (antibody, human IgG4 S228P, kappa, F234A L235A, V domains shown, In the ELISA assays tested as IgG from CHO supernatants; also called the Ab) VH: QVTLKESGPTLVKPTQTLTLTCTFSGFSLSISGVGVGWIRQPPGKALEWLALIYRNDDKRYSPSLKSRLTITKDTSKNQVVLTLTNMDPVDTATYYCARTYSSGWYGNWFDPWGQGTLVTVSS VL: DIVMTQTPLSLPVTPGEPASISCRSSQSLLDSDDGNTYLDWYLQKPGQSPQLLIYMLSYRASGVPDRFSGSGSGTDFTLKISRVEAEDVGIYYCMQRIEFPLTFGGGTKVEIKR', 0.045),
  ('Ab with LC variant having a D31S mutation (SEQ ID NO:21) and a HC of SEQ ID NO:6 (antibody, human IgG4 S228P, kappa, F234A L235A, V domains shown, also called D31S Variant Ab; D31S Ab) VH: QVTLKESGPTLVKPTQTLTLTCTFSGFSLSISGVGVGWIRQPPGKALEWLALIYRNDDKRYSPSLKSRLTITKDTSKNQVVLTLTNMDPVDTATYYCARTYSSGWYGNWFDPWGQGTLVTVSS VL: DIVMTQTPLSLPVTPGEPASISCRSSQSLLSSDDGNTYLDWYLQKPGQSPQLLIYMLSYRASGVPDRFSGSGSGTDFTLKISRVEAEDVGIYYCMQRIEFPLTFGGGTKVEIKR', 0.062),
  ('Ab with LC variant having a E99Q mutation (SEQ ID NO:25) and a HC of SEQ ID NO:6 (antibody, human IgG4 S228P, kappa, F234A L235A, V domains shown, also called E99Q Variant Ab; E99Q Ab) VH: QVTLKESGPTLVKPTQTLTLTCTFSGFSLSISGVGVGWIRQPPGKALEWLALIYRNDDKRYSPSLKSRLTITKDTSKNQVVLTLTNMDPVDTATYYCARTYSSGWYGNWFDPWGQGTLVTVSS VL: DIVMTQTPLSLPVTPGEPASISCRSSQSLLDSDDGNTYLDWYLQKPGQSPQLLIYMLSYRASGVPDRFSGSGSGTDFTLKISRVEAEDVGIYYCMQRIQFPLTFGGGTKVEIKR', 0.062);

Let's switch to this binder now.
OD at 560 nm for Ab with LC variant having a D33A mutation (SEQ ID NO:22) and a HC of SEQ ID NO:6 (antibody, human IgG4 S228P, kappa, F234A L235A, V domains shown, also called D33A Variant Ab; D33A Ab) VH: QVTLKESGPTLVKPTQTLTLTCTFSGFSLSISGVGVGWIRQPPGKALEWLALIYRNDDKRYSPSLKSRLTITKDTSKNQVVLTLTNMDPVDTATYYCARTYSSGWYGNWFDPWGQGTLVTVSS VL: DIVMTQTPLSLPVTPGEPASISCRSSQSLLDSADGNTYLDWYLQKPGQSPQLLIYMLSYRASGVPDRFSGSGSGTDFTLKISRVEAEDVGIYYCMQRIEFPLTFGGGTKVEIKR is 0.048
